Assay system Adenosine receptor A3 (Homo sapiens, UniProt P0DMS8); read-out recorded as log10 Ki.
A value of 2 here means Ki of 100 in nM, since values are log10.

CCCCC#Cc1nc(NCc2cccc(Br)c2)c2ncn([C@@H]3SC[C@@H](O)[C@H]3O)c2n1
1.38
CCCC/C=C/c1nc2c(N)ncnc2n1[C@@H]1OC[C@@H](O)[C@H]1O
1.97
CCCCC#Cc1nc(NCc2cccc(Cl)c2)c2ncn([C@@H]3OC[C@@H](O)[C@H]3O)c2n1
2.18

Continue with the next compound.
Bench note, Adenosine receptor A3 (Homo sapiens, UniProt P0DMS8): "CCCCC#Cc1nc(NCc2cccc(I)c2)c2ncn([C@@H]3OC[C@@H](O)[C@H]3O)c2n1" , log10 Ki reads 2.34

###

Below, each entry is listed with its recorded inhibition.
- experimental-system: Adenosine receptor A1 (Homo sapiens)
- assay-remarks: Displacement of [3H]R-PIA from human recombinant adenosine A1 receptor expressed in CHO cells at 10 uM after 60 mins by […]
- Format: cell-based
Numeric answer plus unit only.

CCCCC#Cc1nc(NCc2cccc(Br)c2)c2ncn([C@@H]3OC[C@@H](O)[C@H]3O)c2n1
12%
CCCCCCc1nc2c(N)ncnc2n1[C@@H]1OC[C@@H](O)[C@H]1O
18.1%
CCCCC#Cc1nc(NCc2cccc(Br)c2)c2ncn([C@@H]3SC[C@@H](O)[C@H]3O)c2n1
12%

Next up:
Entry "CCCCC#Cc1nc(NCc2cccc(F)c2)c2ncn([C@@H]3SC[C@@H](O)[C@H]3O)c2n1" , inhibition reported as 24%

###

pKi by entry:
Protein target, amino acids: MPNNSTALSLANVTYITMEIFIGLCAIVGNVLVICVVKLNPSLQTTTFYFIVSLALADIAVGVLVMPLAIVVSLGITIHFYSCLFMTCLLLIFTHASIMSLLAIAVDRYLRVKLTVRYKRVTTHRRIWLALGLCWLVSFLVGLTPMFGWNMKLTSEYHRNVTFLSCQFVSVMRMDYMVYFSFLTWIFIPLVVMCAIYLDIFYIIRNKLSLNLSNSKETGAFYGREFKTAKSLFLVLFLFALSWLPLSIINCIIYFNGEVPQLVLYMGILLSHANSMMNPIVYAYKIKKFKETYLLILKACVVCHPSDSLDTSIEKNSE
When answering, recall that pKi equals minus log10 of the concentration in mol/L, and write that number alone.

CCCCC#Cc1nc(N)c2ncn([C@@H]3OC[C@@H](O)[C@H]3O)c2n1
6.86

Reported pKi ( "CCCCC#Cc1nc(NCc2cccc(F)c2)c2ncn([C@@H]3OC[C@@H](O)[C@H]3O)c2n1" ) = 6.24

Quick note, pKi for "CCCCC#Cc1nc(NCc2cccc(I)c2)c2ncn([C@@H]3SC[C@@H](O)[C@H]3O)c2n1" landed at 7.41
